Method Description: KARI assay of purified S. exigua KARI and variants with NADPH (Examples 6-9)
Type: biochemical
Assay Context: cofactor NADPH
Observable: U/mg NADPH (specific activity) (U/mg)
Respond with the bare value in U/mg.

Query string: Would you mind telling me what U/mg NADPH (specific activity) value was observed for Se1_KARI^1A8: S. exigua KARI variant G60V, I95V, V99L (protein, UniProt D0WGK0 1-342, looked up, variant G60V I95V V99L) Ketol-acid reductoisomerase …: MSVKTKEKEMAVTILYEQDVDPKVIQGLKVGIIGYGSQGHAHALNLMDSGVDVRVGLREVSSSWKTAEEAGLKVTDMDTAAEEADVIMVLVPDEVQPKLYQEHIAAHLKAGNTLAFAHGFNIHYGYIVPPEDVNVIMCAPKGPGHIVRRQFTEGSGVPDLACVQQDATGNAWDIVLSYCWGVGGARSGIIKATFAEETEEDLFGEQAVLCGGLVELVKAGFETLTEAGYPPELAYFECYHEMKMIVDLMYESGIHFMNYSISNTAEYGEYYAGPKVINEQSREAMKEILKRIQDGSFAQEFVDDCNNGHKRLLEQREAINTHPIETTGAQIRSMFSWIKKED ?
Result string: 0.32

Recorded values, source patent US20140295512A1.
